Hey, just so you know, these numbers are from patent US5026711A.

# pIC50 per entry
molecular target: benzodiazepine receptors of the peripheral type (Felis catus); assay: inhibition of specific binding of [3H] PK11195 to peripheral type benzodiazepine receptors, membrane proteins of cat brain; conditions: [3H] PK11195 0.5 nM, cat brain membranes, 4° C., 2h30; read-out: IC50 (peripheral)
Sequence (A0ABI7ZQW3 15-183): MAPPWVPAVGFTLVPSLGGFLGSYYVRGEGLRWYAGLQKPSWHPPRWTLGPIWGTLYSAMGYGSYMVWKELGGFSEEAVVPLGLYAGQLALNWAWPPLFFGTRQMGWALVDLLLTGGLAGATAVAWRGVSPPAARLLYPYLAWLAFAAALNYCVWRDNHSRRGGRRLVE
pIC50: −log10 of the molar value.

compound	tested on	pIC50
CCOC(=O)c1cnc2cc(Cl)ccc2c1NC(C)C(=O)N(C)c1ccc(Cl)cc1 (stereo not drawn) [compound 26423]	benzodiazepine receptors of the peripheral type (Felis catus)	9.00
CCCN(CCC)C(=O)C(C)Nc1c(C(=O)OCC)cnc2cc(F)ccc12 (stereo not drawn) [compound 26920]	benzodiazepine receptors of the peripheral type (Felis catus)	7.74
CN(C(=O)CNc1c(C(=O)c2ccccc2)cnc2cc(Cl)ccc12)c1ccc(Cl)c(Cl)c1 [compound 26676]	benzodiazepine receptors of the peripheral type (Felis catus)	8.96
CN(C(=O)CNc1c(C(=O)c2cccnc2)cnc2cc(Cl)ccc12)c1ccc(Cl)cc1 [compound 26643]	benzodiazepine receptors of the peripheral type (Felis catus)	8.92
CCCN(CCC)C(=O)CNc1c(C(=O)c2ccccc2)cnc2cc(Cl)ccc12 [compound 26290]	benzodiazepine receptors of the peripheral type (Felis catus)	8.00
CCCN(CCC)C(=O)C(C)Nc1c(C(=O)OCC)cnc2cc(Cl)ccc12 (stereo not drawn) [compound 26310]	benzodiazepine receptors of the peripheral type (Felis catus)	9.00
